Target: Tyrosyl-tRNA synthetase, putative (Trypanosoma cruzi (strain CL Brener)) (UniProt Q4DSP6)
Sequence (Q4DSP6 as listed by the source): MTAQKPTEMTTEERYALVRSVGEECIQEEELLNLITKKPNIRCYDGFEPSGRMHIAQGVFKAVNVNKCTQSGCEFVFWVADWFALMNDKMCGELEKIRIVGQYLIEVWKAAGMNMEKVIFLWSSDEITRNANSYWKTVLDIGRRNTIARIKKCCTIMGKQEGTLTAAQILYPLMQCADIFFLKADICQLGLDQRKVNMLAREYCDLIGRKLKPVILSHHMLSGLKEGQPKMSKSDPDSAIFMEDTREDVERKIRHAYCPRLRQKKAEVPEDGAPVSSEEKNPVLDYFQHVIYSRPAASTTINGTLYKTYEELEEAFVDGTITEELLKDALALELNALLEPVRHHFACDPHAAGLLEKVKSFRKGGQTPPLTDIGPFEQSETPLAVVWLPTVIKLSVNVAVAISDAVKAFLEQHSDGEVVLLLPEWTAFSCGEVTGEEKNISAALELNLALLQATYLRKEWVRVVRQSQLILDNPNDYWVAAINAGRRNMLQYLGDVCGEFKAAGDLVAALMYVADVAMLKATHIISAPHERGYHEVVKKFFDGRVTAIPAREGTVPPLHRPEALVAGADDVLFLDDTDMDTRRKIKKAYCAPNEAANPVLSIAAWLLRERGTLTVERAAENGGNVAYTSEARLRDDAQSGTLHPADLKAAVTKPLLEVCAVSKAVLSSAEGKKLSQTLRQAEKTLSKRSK
Assay: Trypanosoma cruzi tyrosyl tRNA synthetase (TcYRS) SOP
Type: functional
Parameters: scale not given: direction of the effect not stated beside the values
Conditions: 30 µM
// reported Percent Effect per item
Report only the number, with the unit % understood.

Solved entries (count: 5):
COc1ncccc1CN1C[C@@H]2COC[C@]2(COCC2CC2)C1
2.56
COc1c(Br)cc(Br)cc1CNC(C)Cn1cccn1 (stereo not drawn)
9.76
CN1CCN(Cc2ccoc2)Cc2cccnc21
-15.4
CN(C)C(=O)COC[C@H]1CC[C@@H]2[C@@H](CCN2Cc2ccccn2)O1
3.66
CCN(Cc1cccnc1)CC1CCCO1 (stereo not drawn)
2.5

Documented Percent Effect of "Cc1ncsc1CN1CC[C@H]2C[C@H](c3ccncn3)O[C@@H]2C1" : 6.41

Documented Percent Effect of CCN1CCC2(CCC1=O)CN(c1ccnc(SC)n1)CCN2C (stereo not drawn) : 8.64

Documented Percent Effect of "CN1CCC2(CC1)C(=O)N(CC1CC1)c1ccccc12" : 0

Documented Percent Effect of "COCCN1C[C@H]2[C@@H](C1)N(C(=O)COc1ccccc1)CC[C@H]2OC" : 15.4

Documented Percent Effect of "CC(C)CN1CCC2(C1)CN(c1ncccn1)C2" : 11.5

Documented Percent Effect of "O=C(NC1CCC1)[C@@H]1C[C@@H]2CCN(Cc3ccncc3)C[C@H]2O1" : 12.5

Documented Percent Effect of "O=C(c1cc(-n2cccc2)ccc1Cl)N1CCC2(CC1)OCCO2" : 10.4

Documented Percent Effect of "Cc1nc(CN2CCO[C@H]3[C@@H](OCc4ccccn4)CC[C@@H]32)cs1" : 7.69

Documented Percent Effect of O=C1CSC(c2ccc(O)c(Cl)c2)c2c(n(C3CCOCC3)[nH]c2=O)N1 (stereo not drawn) : 17.9

Documented Percent Effect of "c1ccc(CN2CCO[C@H]3[C@H](OCCN4CCCC4)CC[C@@H]32)nc1" : 5

Documented Percent Effect of "C[C@@H]1CN(Cc2ccsc2)C[C@]12CCN(Cc1cccnc1)C2=O" : -10

Documented Percent Effect of COc1ccc(C(=O)C2CCCN(Cc3ccncc3)C2)c(OC)c1 (stereo not drawn) : 12.2

Documented Percent Effect of "CS(=O)(=O)N1CCC(C(=O)N2CCC3(CC2)OCCCO3)CC1" : 21.8

Documented Percent Effect of O=C(Cc1cccs1)N1C[C@@H]2OCCN(CC3CCCO3)[C@@H]2C1 (stereo partly drawn) : 6.17

Documented Percent Effect of O=C1CSC(c2ccsc2)c2c(n(C3CCOCC3)[nH]c2=O)N1 (stereo not drawn) : 12.8
